Please go through the items and note down their inhibition at 500 µg/mL.
# MEASURED_ON: α-glucosidase from Saccharomyces cerevisiae (Saccharomyces cerevisiae, UniProt P53341)
# Construct: purchased Sigma-Aldrich (Germany)
# Sequence (P53341 whole entry): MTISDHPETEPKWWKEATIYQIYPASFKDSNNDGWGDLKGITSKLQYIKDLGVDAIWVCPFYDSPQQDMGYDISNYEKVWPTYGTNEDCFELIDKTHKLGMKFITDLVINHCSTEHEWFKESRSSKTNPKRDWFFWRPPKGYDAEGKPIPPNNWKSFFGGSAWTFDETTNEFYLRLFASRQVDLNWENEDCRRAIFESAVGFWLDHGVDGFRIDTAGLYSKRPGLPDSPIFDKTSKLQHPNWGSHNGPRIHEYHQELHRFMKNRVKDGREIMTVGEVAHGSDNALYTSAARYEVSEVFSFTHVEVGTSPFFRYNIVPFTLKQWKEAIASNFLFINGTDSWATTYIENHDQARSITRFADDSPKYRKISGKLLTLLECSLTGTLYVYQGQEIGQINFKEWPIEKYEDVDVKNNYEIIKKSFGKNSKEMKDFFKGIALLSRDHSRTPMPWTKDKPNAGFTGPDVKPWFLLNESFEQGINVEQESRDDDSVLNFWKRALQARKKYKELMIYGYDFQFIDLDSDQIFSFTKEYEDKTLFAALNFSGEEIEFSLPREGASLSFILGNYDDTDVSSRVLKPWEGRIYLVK
# ASSAY_OVERVIEW: α-glucosidase inhibitory assay (p-NPG, 96-well microplate)
# Type: biochemical
# EXPERIMENTAL_CONTEXT: pure compound at 500 µg/mL, triplicate

O=c1c(O)c(-c2ccc(O)c(O)c2)oc2cc(O)cc(O)c12    30 to 40%

Give measured inhibition at 500 µg/mL for every item shown.
1. C[C@H]1O[C@H](O[C@H]2[C@H](O)[C@@H](O)[C@@H](O[C@H]3[C@H](O)[C@@H](O)C(O)O[C@@H]3CO)O[C@@H]2CO)[C@H](O)[C@@H](O)[C@@H]1N[C@H]1C=C(CO)[C@@H](O)[C@H](O)[C@H]1O (some centres unmarked) [Acarbose, acarbose, reference compound]
2. O=C(O)c1cc(O)c(O)c(O)c1
3. O=C1O[C@H]2[C@@H]3OC(=O)c4cc(O)c(O)c(O)c4-c4c(O)c(O)c5oc(=O)c6c(c(O)c(O)c7oc(=O)c4c5c76)-c4c(cc(O)c(O)c4O)C(=O)OC[C@H]3OC(O)[C@@H]2OC(=O)c2cc(O)c(O)c(O)c2-c2c1cc(O)c(O)c2O (mixture of isomers)
4. O=c1oc2c(O)c(O)cc3c(=O)oc4c(O)c(O)cc1c4c23
5. O=c1c(O[C@@H]2O[C@H](CO)[C@H](O)[C@H](O)[C@H]2O)c(-c2ccc(O)c(O)c2)oc2cc(O)cc(O)c12 [hyperoside, quercetin-3-O-β-galactoside]
6. O=C(/C=C/c1ccc(O)cc1)OC[C@H]1O[C@@H](Oc2c(-c3ccc(O)cc3)oc3cc(O)cc(O)c3c2=O)[C@H](O)[C@@H](O)[C@@H]1O [Tiliroside]
7. O=c1c(O)c(-c2ccc(O)cc2)oc2cc(O)cc(O)c12

Reply |
13.7%
> 70%
> 70%
> 70%
26%
> 70%
17.6%
